Can you tell me inhibition for the items I'm about to list?
test: growth inhibition of WT strain, primary screen, mitochondrial fusion inhibitor project, WT and mutant strains, chemical genetic (AID 1362); details: mitochondrial fusion phenotypic screen, mutant strain inhibition; at 10 µM
About 4,000 (2.1%) of roughly 190,000 compounds were called active. Only a selection was taken, and actives are over-represented in it overall.
Express it in %; write the number only.

The compound listed as `CC(C)c1ccc(N2CCN(C(=O)c3ccccc3NC(=O)/C=C(\C(=O)O)c3ccccc3)CC2)cc1` has a reported inhibition of 37.8

The compound listed as `Cc1ccc(C(=O)O)cc1N1C(=O)CCCC1=O` has a reported inhibition of -14.6

The compound listed as COc1cccc(C2c3[nH]c4ccccc4c3CCN2Cc2cccc(C)n2)c1 (stereo unspecified) has a reported inhibition of 33.8

The compound listed as `CC/C(=N\NC(=S)NC(C)C)c1ccc(OC(F)F)cc1` has a reported inhibition of 43.5

The compound listed as `COc1ccc(C(=O)CSc2nnc(-c3ccco3)o2)cc1` has a reported inhibition of -35.3

The compound listed as `NC(=O)c1ccccc1N(Cc1ccccc1)S(=O)(=O)c1ccccc1` has a reported inhibition of 17.1

The compound listed as `Cc1ccc(NC(=O)CN(C)Cc2ccc(F)cc2)c([N+](=O)[O-])c1` has a reported inhibition of 0.15

The compound listed as Cc1coc(C)c1C(=O)CC1(O)C(=O)N(C)c2ccc(Cl)cc21 (stereo unspecified) has a reported inhibition of 0.33

The compound listed as CC(=O)OC(COc1ccc(F)cc1)Cn1cnc2ccccc21 (stereo unspecified) has a reported inhibition of 4.78

The compound listed as c1ccc(C2c3[nH]c4ccccc4c3CCN2Cc2cccn2-c2cccnc2)nc1 (stereo unspecified) has a reported inhibition of -2.59

The compound listed as `C/C(=N\NC(=S)NCc1ccccc1)c1ccc(Cl)cc1` has a reported inhibition of 21.1

---

Can you tell me inhibition for the items I'm about to list?
test: growth inhibition of WT strain, primary screen, mitochondrial fusion inhibitor project, WT and mutant strains, chemical genetic (AID 1362); conditions: mitochondrial fusion phenotypic screen, mutant strain inhibition; at 10 µM
The whole screen tested about 190,000 compounds, of which about 4,000 (2.1%) were called active. This is one part of a sample in which actives are shown more often than they occur.
Express it in %; write the number only.

The molecule listed as `c1ccc(CN2CCC(N=C3NN=C(c4ccc5c(c4)OCCO5)CS3)CC2)cc1` has a reported inhibition of 33

The molecule listed as `O=C1Nc2ccc([N+](=O)[O-])cc2C1=Nc1cccc(CO)c1` has a reported inhibition of 6.98

The molecule listed as `N/C(=N\OC(=O)CCCC(=O)O)c1ncc(C(F)(F)F)cc1Cl` has a reported inhibition of 9.98

The molecule listed as `O=C(NC1CC1)c1ccc(-c2ccccc2)cc1` has a reported inhibition of 8.3

The molecule listed as `N/C(=N\OC(=O)Nc1ccc(Cl)c(Cl)c1)c1ncc(C(F)(F)F)cc1Cl` has a reported inhibition of 78.5

The molecule listed as CCOCCCNC(=O)C(NC(=O)Cc1c[nH]c2ccccc12)c1ccc(OC)cc1 (configuration not stated) has a reported inhibition of 8.23

The molecule listed as Cn1cccc1C(C#N)c1ccccc1C#N (configuration not stated) has a reported inhibition of -5.92

The molecule listed as COc1ccc(C2CC(c3cccs3)=NN2C(=O)CSc2nncs2)cc1OC (configuration not stated) has a reported inhibition of -8.65

The molecule listed as `COc1cc(C)c(Cl)cc1S(=O)(=O)n1ccnc1` has a reported inhibition of -5.05

The molecule listed as `O=C(COc1ccc(Cl)cc1[N+](=O)[O-])N1CCCCC1` has a reported inhibition of -14.6

The molecule listed as `O=C(c1cccnc1)N(c1cc2sc(=O)oc2c2ccccc12)S(=O)(=O)c1ccccc1` has a reported inhibition of 25.4

The molecule listed as `COc1ccc(N(C(=O)c2cccnc2)S(=O)(=O)c2ccc3c(c2)n(C)c(=O)n3C)cc1` has a reported inhibition of -32.1

The molecule listed as `Cc1n[nH]c(=O)n1-c1ccc(C(C)C)cc1` has a reported inhibition of -2.69

The molecule listed as `Clc1cccc(N=C2NN=C(c3ccc4c(c3)OCCO4)CS2)c1` has a reported inhibition of 17

The molecule listed as `NS(=O)(=O)c1cccc(NC(=O)CSc2nc3ccccc3n2-c2ccccc2)c1` has a reported inhibition of 1

The molecule listed as `CCOC(=O)C1CCN(c2ncnc3c2c(-c2ccccc2)cn3-c2ccc(C)cc2)CC1` has a reported inhibition of 15.5

The molecule listed as CCn1nc(C)cc1C(=O)N1CCCC(C(=O)c2cccc(OC)c2)C1 (configuration not stated) has a reported inhibition of 1.68

The molecule listed as CSCCC(=O)N1CCCC(CNC(=O)c2ccccc2Cl)C1 (configuration not stated) has a reported inhibition of -1.81

The molecule listed as `Cc1ccc(SCCC(=O)OCC(=O)Nc2ncc(Cl)cc2Cl)cc1` has a reported inhibition of 2.8

The molecule listed as `CN(C)S(=O)(=O)c1cccc(C(=O)Nc2cccnc2)c1` has a reported inhibition of 2.94

The molecule listed as `Cc1ccc(C)c(Cn2cnc3c(oc4ccccc43)c2=O)c1` has a reported inhibition of -14.3

The molecule listed as `Cc1cccc(NC(=O)c2sc(-c3ccccc3)nc2-c2ccc([N+](=O)[O-])cc2)c1` has a reported inhibition of -6.51

---

Can you tell me inhibition for the items I'm about to list?
experiment: growth inhibition of WT strain, primary screen, mitochondrial fusion inhibitor project, WT and mutant strains, chemical genetic (AID 1362); conditions: mitochondrial fusion phenotypic screen, mutant strain inhibition; at 10 µM
In all, about 190,000 compounds went through this assay and about 4,000 (2.1%) were called active. The full list was thinned out, with actives kept by preference.

The compound listed as CCC(=O)c1ccc(OCC(O)Cn2nc(C)c(C(C)=O)c2C)cc1 (stereo unspecified) has a reported inhibition of -0.7%

The compound listed as `C=CCn1c(N)c(S(=O)(=O)c2cccs2)c2nc3ccccc3nc21` has a reported inhibition of 0.9%

The compound listed as `Cc1csc(Nc2ccc(Cl)cc2)[n+]1-c1ccc(Cl)cc1` has a reported inhibition of 70%

The compound listed as `N#CCSc1nn(-c2ccc(F)cc2)c(=S)s1` has a reported inhibition of -30.5%

The compound listed as `CC(C)Cn1c(N)c(C(=O)NCc2cccs2)c2nc3ccccc3nc21` has a reported inhibition of 7%

The compound listed as `COc1cc(NC(=O)CN(C)S(=O)(=O)c2ccc3nc(C)sc3c2)cc(OC)c1` has a reported inhibition of 4.68%

---

test: growth inhibition of WT strain, primary screen, mitochondrial fusion inhibitor project, WT and mutant strains, chemical genetic (AID 1362); conditions: mitochondrial fusion phenotypic screen, WT strain, growth inhibition; at 10 µM; stronger effect = higher value
Hit rate of the full screen: of about 190,000 compounds, about 4,000 (2.1%) were called active. The sample as a whole holds a higher share of actives than the screen did.
observable: inhibition (%)
Express it in %; write the number only.

The compound listed as `COc1ccc(-c2nn(-c3ccccc3)cc2/C=N/Nc2ccccn2)cc1OC` has a reported inhibition of 60.2

The compound listed as `CC(C)(C)NC(=O)c1ccc(Cn2cc(C(F)(F)F)ccc2=O)cc1` has a reported inhibition of 3.12

The compound listed as `O=c1c2ccccc2c(-c2ccccc2)nn1Cc1ccccc1` has a reported inhibition of -8.61

The compound listed as `CC(=O)Nc1ccc(NC(=S)NC(=O)/C=C/c2ccccc2)cc1` has a reported inhibition of -1.35

The compound listed as `CCOC(=O)C1=C(CC)Nc2ccccc2N=C1N` has a reported inhibition of -42.2

The compound listed as `O=C(COC(=O)CNS(=O)(=O)c1ccccc1)NC12CC3CC(CC(C3)C1)C2` has a reported inhibition of 4.93

The compound listed as `CC(C)(C)OC(=O)N/N=C/c1cn(-c2ccccc2)nc1-c1cccnc1` has a reported inhibition of -8.33

The compound listed as O=C(Nc1cccc(F)c1)N1C2CCC1CC(O)(c1cccnc1)C2 (stereo unspecified) has a reported inhibition of -6.02

The compound listed as NS(=O)(=O)c1ccc(N2C(=O)C3C4CC(C(Br)C4Br)C3C2=O)cc1 (stereo unspecified) has a reported inhibition of -2.55

The compound listed as `COC(=O)CNC(=O)c1ccc(OC2CCN(C(=O)C3CC3)CC2)cc1` has a reported inhibition of 1.17

The compound listed as `O=C(COC(=O)c1ccc(O)cc1)Nc1nccs1` has a reported inhibition of -7.58

---

experiment: growth inhibition of WT strain, primary screen, mitochondrial fusion inhibitor project, WT and mutant strains, chemical genetic (AID 1362); settings: mitochondrial fusion phenotypic screen, WT strain, growth inhibition; at 10 µM; stronger effect = higher value
Among all 190,000 compounds or so, about 4,000 (2.1%) were called active. The list comes from a sample in which actives are over-represented; it also holds close analogues and randomly drawn compounds.
observable: inhibition (%)
Express it in %; write the number only.

The compound listed as `O=C(COC(=O)Cc1ccc(Br)cc1)Nc1c(F)c(F)c(F)c(F)c1F` has a reported inhibition of 19.9

The compound listed as `CCOC(=O)c1cc(-c2ccc(F)cc2)n(CC(=O)NCc2ccccn2)c1C` has a reported inhibition of -1.19

The compound listed as Cc1ccc(NC(=O)CC2S/C(=N/N=C3\CCCc4ccccc43)NC2=O)cc1 (stereo not given) has a reported inhibition of 83.8

The compound listed as CCN=C1SC(CC(=O)Nc2ccc(C)cc2)C(=O)N1CC (stereo not given) has a reported inhibition of -14.8

The compound listed as `O=C(CSc1nnc(-c2cccs2)n1-c1ccccc1)N1CCN(C(=O)c2ccco2)CC1` has a reported inhibition of -17.6
